# credit: patent US10689383B2

measured_on: human RORγt (Ligand Binding Domain) (Homo sapiens, UniProt P51449)
Construct: purchased Crelux (Planegg, Germany) batch no PC5032-1
Sequence (P51449 269-508 limits assumed): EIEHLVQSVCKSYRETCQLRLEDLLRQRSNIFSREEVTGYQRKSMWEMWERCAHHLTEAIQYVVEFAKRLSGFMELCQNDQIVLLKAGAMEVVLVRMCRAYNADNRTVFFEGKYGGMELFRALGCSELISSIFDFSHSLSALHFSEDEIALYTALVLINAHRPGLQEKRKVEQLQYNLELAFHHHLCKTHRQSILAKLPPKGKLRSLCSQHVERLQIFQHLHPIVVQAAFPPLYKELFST
assay_overview: Fluorescence Polarization (FP) Assay
assay_conditions: Fluorescence Polarization (FP) Assay; values given as upper bounds of activity ranges; read-out: FP activity range
pIC50: −log10 of the molar value.
measured_metric: pIC50

Sample answers from the record:
>>> reading("O=C(O)c1ccc(CCNc2ncnc(N3CCCC3c3ccc(C(F)(F)F)cc3)c2F)cc1 (stereo not shown)")
"> 5.00"
>>> reading("[O-][n+]1ccc(CNc2ncnc(N3CCC[C@@H]3c3ccc(C(F)(F)F)cc3)c2F)cc1")
"> 5.70"
>>> reading("CCC(Nc1ncnc(N2CCCC2c2ccc(C(F)(F)F)cc2)c1F)c1ccc2c(c1)OCCCO2 (stereo not shown)")
"> 5.00"
>>> reading("O=C(O)C[C@H]1CC[C@H](CNc2ncnc(N3CCOC[C@@H]3c3ccc(OC(F)(F)F)cc3)c2F)CC1")
"> 6.30"
>>> reading("O=C1CCCN1c1ccc(CNc2ncnc(N3CCCC3c3ccc(C(F)(F)F)cc3)c2F)cc1 (stereo not shown)")
"> 5.00"

Inquiry: What value of pIC50 has been recorded for this entry: CS(=O)(=O)N1CCC(Cn2ccc3c(N4CCOC[C@@H]4c4ccc(OC(F)(F)F)cc4)ncnc32)CC1
Reply text: > 6.30

Inquiry: // query pIC50 value for entry CC(C)(C)C1OCCCC1CNc1ncnc(N2CCC[C@@H]2c2ccc(C(F)(F)F)cc2)c1F (stereo partly shown)
Reply text: > 5.00

Inquiry: Look at this compound and give its reported pIC50. Fc1c(NC[C@H]2CC[C@H](Cc3nnn[nH]3)CC2)ncnc1N1CCC[C@@H]1c1ccc(C(F)(F)F)cc1
Reply text: > 6.30

###

measured_on: yeast Gal4-DNA binding domain fused to the ligand binding domain of human RORγ (Homo sapiens)
Construct: host or cells: HEK293t
Sequence (P51449 269-508 limits assumed): as above
assay_overview: RORγ Reporter Assay (Gal4)
Assay type: cell-based
assay_conditions: RORγ Reporter Assay (Gal4) at 1 μM; values given as lower bounds of ranges
Reported Gal4 activity range @ 1 μM (% inhibition) values follow for various compounds

Below, 5 compounds whose answers are already recorded.
>>> reading("Fc1c(NCc2cccs2)ncnc1N1CCC[C@@H]1c1ccc(C(F)(F)F)cc1")
">50 % inhibition"
>>> reading("NC(=O)Cc1ccc(CNc2ncnc(N3CC(F)(F)CC3c3ccc(C(F)(F)F)cc3)c2F)cc1 (stereo not drawn)")
">80 % inhibition"
>>> reading("CN(C)C(=O)C1CCC(CNc2ncnc(N3CCCC3c3ccc(C(F)(F)F)cc3)c2F)O1 (stereo not drawn)")
">0 % inhibition"
>>> reading("CC1(CNc2ncnc(N3CCC[C@@H]3c3ccc(C(F)(F)F)cc3)c2F)COC1")
">80 % inhibition"
>>> reading("Cc1ccc(CNc2ncnc(N3CCCC3c3ccc(C(F)(F)F)cc3O)c2F)cn1 (stereo not drawn)")
">20 % inhibition"

Consider now this further compound.
Inquiry: # get_value(readout='Gal4 activity range @ 1 μM (% inhibition)', item= CC(C)(C)C[C@@H](Nc1ncnc(N2CCCC2c2ccc(C(F)(F)F)c(F)c2)c1F)C(N)=O (stereo partly drawn) )
Reply text: >80 % inhibition

###

# Gal4 activity range @ 1 μM (% inhibition) per record follows
measured_on: yeast Gal4-DNA binding domain fused to the ligand binding domain of human RORγ (Homo sapiens)
Construct: host or cells: HEK293t
assay_overview: RORγ Reporter Assay (Gal4)
Format: cell-based
assay_conditions: RORγ Reporter Assay (Gal4) at 1 μM; values given as lower bounds of ranges

>>> reading("NC(=O)Cc1ccc(Cn2ccc3c(N4CCOCC4c4ccccc4)ncnc32)cc1 (stereo not drawn)")
">50 % inhibition"
>>> reading("Fc1c(NCC2CCOCC2)ncnc1N1CC(F)(F)CC1c1ccc(C(F)(F)F)cc1 (stereo not drawn)")
">80 % inhibition"
>>> reading("CC1(CNc2ncnc(N3CCOC[C@@H]3c3ccc(C(F)(F)F)cc3)c2F)COC1")
">50 % inhibition"

Inquiry: What does the data say about its Gal4 activity range @ 1 μM (% inhibition)? Entry: CS(=O)(=O)Cc1ccc(CNc2ncnc(N3CCCC3c3ccc(C(F)(F)F)cc3)c2F)cc1 (stereo not drawn)
Reply text: >80 % inhibition

Inquiry: I'd like to know its Gal4 activity range @ 1 μM (% inhibition). The compound in question is NC(=O)c1ccc(CNc2ncnc(N3CCC[C@@H]3c3ccc(C(F)(F)F)cc3)c2F)cc1
Reply text: >50 % inhibition
